Every entry's value here was drawn from patent US20230322789A1.

# IC50 measurements, system: HPK1 (Homo sapiens (Human))
# Sequence (Q92918 whole entry): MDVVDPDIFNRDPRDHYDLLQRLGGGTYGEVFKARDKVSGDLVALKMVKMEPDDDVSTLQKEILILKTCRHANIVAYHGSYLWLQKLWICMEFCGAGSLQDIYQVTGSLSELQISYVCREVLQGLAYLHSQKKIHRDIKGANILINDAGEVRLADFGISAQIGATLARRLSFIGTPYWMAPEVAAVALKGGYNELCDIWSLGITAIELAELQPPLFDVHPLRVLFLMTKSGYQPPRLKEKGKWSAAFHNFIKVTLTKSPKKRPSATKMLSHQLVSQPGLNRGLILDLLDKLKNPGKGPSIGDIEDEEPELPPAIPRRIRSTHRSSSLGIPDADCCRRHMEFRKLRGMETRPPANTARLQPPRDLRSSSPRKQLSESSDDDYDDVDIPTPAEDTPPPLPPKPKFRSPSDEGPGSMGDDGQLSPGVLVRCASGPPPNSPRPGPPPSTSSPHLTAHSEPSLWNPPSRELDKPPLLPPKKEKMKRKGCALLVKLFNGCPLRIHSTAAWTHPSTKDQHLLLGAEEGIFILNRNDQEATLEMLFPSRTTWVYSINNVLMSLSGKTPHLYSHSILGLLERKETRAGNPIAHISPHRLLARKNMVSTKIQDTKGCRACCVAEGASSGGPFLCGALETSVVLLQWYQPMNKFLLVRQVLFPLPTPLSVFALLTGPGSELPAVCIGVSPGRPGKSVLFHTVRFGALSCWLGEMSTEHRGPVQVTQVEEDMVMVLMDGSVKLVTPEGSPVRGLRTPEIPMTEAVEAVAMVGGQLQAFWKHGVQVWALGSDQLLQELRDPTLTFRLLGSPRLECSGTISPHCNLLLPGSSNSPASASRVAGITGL
endpoint: IC50

{"molecule": "COc1cccc(F)c1-n1nc2c(-c3ccc(N4CCN5C(=O)CN(C)CC5C4)cc3)n[nH]c2cc1=O (stereo not shown) [Compound 132]", "endpoint": "IC50", "test.value": "≤ 50 nM"}
{"molecule": "Cc1cccc(F)c1-n1nc2c(-c3ccc(N4CCN5C(=O)OCC5C4)cc3)n[nH]c2cc1=O (stereo not shown) [Compound 122]", "endpoint": "IC50", "test.value": "≤ 50 nM"}
{"molecule": "Cc1cccc(F)c1-n1nc2c(-c3ccc4c(c3)C(CO)N(C)CC4)n[nH]c2cc1=O (stereo not shown) [Compound 184]", "endpoint": "IC50", "test.value": "50 to 500 nM"}
{"molecule": "COc1cc(C#N)cc(F)c1-n1nc2c(-c3ccc(N4CCN5C(=O)OCC5C4)cc3)n[nH]c2cc1=O (stereo not shown) [Compound 124]", "endpoint": "IC50", "test.value": "≤ 50 nM"}
